Data origin, for the record: paper PMC12136788

TARGET_OF_ASSAY: T1, UNK ZnF1-3 (human, UniProt Q9C0B0 31-174)
T1 sequence: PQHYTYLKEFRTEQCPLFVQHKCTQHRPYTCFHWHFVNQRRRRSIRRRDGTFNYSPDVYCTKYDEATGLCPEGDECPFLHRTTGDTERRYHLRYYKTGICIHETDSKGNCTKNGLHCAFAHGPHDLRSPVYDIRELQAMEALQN
METHOD_NOTES: nsRBNS (natural sequence RNA bind-n-seq); RBNS binding buffer (assumed for nsRBNS): 25 mM Tris pH 7.5, 150 mM KCl, 3 mM MgCl2, 0.01% Triton X-100, 500 ug/ml BSA, 20 U/ml SUPERase-In, 4 C; UNK is unkempt and MSI1 is Musashi-1; names of the RNAs are library labels; protein concentration not given here; high values mean tight binding
Whole data set: some 24,000 sequences, median “enrichment r” near 0.99, cut for the highest 2% near 3.7. Only a sample is shown.
PARAMETER: binding signal (enrichment R)
// units = enrichment R; emit number, no label

chr7:7679991:7679992:-_ENSG00000106399_ENST00000396682|hu_hu|hu_hu_hu_mus_False|88_98 (ssRNA) RNA: GGGAGUUCUACAGUCCGACGAUCUGGGAUGAAUCUUUUCCAGCCUCCCUACGAAGCACACGGGCCGGUCGAUAUACUGUGGUAACAUGCUGGCGUUGACGCGCGCUUUGGGGAGCUGCAUUAUGUCCUCCAUGAUUCUGCCGCCAACAGAGGAUUGAGCAUCA    0.573
chr6:146524949:146524950:-_ENSMUSG00000040250_ENSMUST00000032427|mus_hu|FALSE|FALSE (ssRNA) RNA: GGGAGUUCUACAGUCCGACGAUCCUGCCUGCAAGAUUCUGCCAUAUAAGGGCAGUGAUCCACAACAAACACUGUUUUAUGAGAUUCAGAAAAAAUCUUCAUUUUGUUUUAACUUUCGUGCCUGGUCCUGCAGUGAAAACGAACCAACAGAGGAUUGAGCAUCA    1.02
chr1:174973770:174973771:+_ENSG00000116161_ENST00000406752|hu_mus|FALSE|FALSE (ssRNA) RNA: GGGAGUUCUACAGUCCGACGAUCGAGUUCCGUCUCAAUCUUGGACUUUUCACUUGUAAGAGUAUCACGUAGUCUUUUCCUAGUGGACUUUUCCAGCAAUACUUUGACCUCUUCUAGGUCUUUCUGCAACUCUUCCAAAACGGACAACAGAGGAUUGAGCAUCA    0.405
52112337_52131274_754_3pUTR_ENSMUSG00000022637_ENSMUST00000114471|mouse|control|control (ssRNA) RNA: GGGAGUUCUACAGUCCGACGAUCAUCAAUGGUUGACUUCAGAGCCAUUGCUUCCAGGCCAGAGCUGAUCUGAUGGACCUCAUGCAGGCACUGUCUGAAGACUUUCCAUGGUACAAUAGUUUUGUCUCCAAAAAACUUCCUCCACAACAGAGGAUUGAGCAUCA    0.85
chr3:132387698:132387699:+_ENSG00000081307_ENST00000264991|hu_hu|FALSE|FALSE (ssRNA) RNA: GGGAGUUCUACAGUCCGACGAUCUUGAACUUUACUUAAUCCUGCUUGAUGAGGUUGGAAGAAAAGUCUAUUCAUAUUGGCUAGUUCCACCUUGUCAUAAUCAAAGAGUAGCAACUUACCAAUGCCACAUCUUGUCAGCAUUUCCAACAGAGGAUUGAGCAUCA    0.799
chr2:179515052:179515053:+_ENSMUSG00000000305_ENSMUST00000000314|mus_hu|mus_mus_mus_hu_False|28_58 (ssRNA) RNA: GGGAGUUCUACAGUCCGACGAUCGCUGUCCCAUGCAGUCACCGUGAACGCCACCUGCUCGGAGGGGACCUGCAGCUCCCUAGUGGCGAAGACUGUCCCAUCUGCCCCGACUUUGAAGUCCAUGCUGUUGGUCUCAUAUUGUGUCAACAGAGGAUUGAGCAUCA    0.737

Now turn to the next binder.
Q: So what does the record say about binding signal for chr9:95013113:95013114:-_ENSG00000196305_ENST00000443024|hu_hu|hu_hu_hu_mus_False|1_48 (ssRNA) RNA: GGGAGUUCUACAGUCCGACGAUCCUCAGUCAGAAAGGGCGUGUAAGGGGCCAUCAGUCUGCACAGAGAAAGCAGGACACUGAACAGGGUUUCUAGGGCCAUGACACAGUCUUCCACCCCACUCUCACCCUUUAACCUUCUGCGCAACAGAGGAUUGAGCAUCA ?
A: 0.937
